The reported numbers originate from the supplement of paper PMC12494721.

System: Escherichia coli IAI1
protocol: growth (OD595) fold change vs plate DMSO controls (fold change (ratio)); higher = more growth
measurement_parameters: incubation time: 27 h, anaerobic, 37 °C
Rule: growth of 1 or more gives true (1); anything lower gives false (0).

> print(dat)
                                   compound           assay.system   category
1  Cc1cnc(C(=O)NCCc2ccc(S(=O)(=O)NC(=O)NC3CCCCC3)cc2)cn1 [Glipizide] (20 µM)  Escherichia coli IAI1  false (0)
2  Clc1ccc(Nc2nnc(Cc3ccncc3)c3ccccc23)cc1 [Vatalanib] (20 µM)  Escherichia coli IAI1   true (1)
